Hello, the source for this data is patent US20170037028A1, in case you need it.

Target: GLUT1 (Homo sapiens, UniProt P11166)
Sequence (P11166 1-492): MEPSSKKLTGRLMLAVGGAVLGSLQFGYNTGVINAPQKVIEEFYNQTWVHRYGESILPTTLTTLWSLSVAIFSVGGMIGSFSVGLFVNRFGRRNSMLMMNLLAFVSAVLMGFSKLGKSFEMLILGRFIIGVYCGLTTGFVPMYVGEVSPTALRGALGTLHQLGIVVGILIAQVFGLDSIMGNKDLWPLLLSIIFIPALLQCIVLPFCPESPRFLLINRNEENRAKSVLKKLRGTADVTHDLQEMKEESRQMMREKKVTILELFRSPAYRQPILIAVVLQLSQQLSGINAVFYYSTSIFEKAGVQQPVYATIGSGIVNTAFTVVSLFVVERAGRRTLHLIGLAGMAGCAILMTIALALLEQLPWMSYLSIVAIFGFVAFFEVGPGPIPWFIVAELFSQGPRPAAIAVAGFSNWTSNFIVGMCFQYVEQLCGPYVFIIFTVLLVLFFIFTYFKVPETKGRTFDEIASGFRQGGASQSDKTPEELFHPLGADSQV
Assay: Indirect measurement of GLUT1 activity by quantification of intracellular ATP levels (glucose induced ATP increase)
Format: cell-based
Parameters: endogenous in cells; host or cells: DLD1 or CHO-K1
Settings: read-out: IC50 regarding glucose induced ATP increase (GLUT1 inhibition)
MEASURED PROPERTY: IC50 (nM)

1 = Cc1nn(Cc2c(F)cc(F)cc2F)c(C)c1NC(=O)c1cc(C(F)(F)F)nc2ccc(Br)cc12 [Example 49]
2 = Cc1nn(Cc2ccc(C#N)cc2)c(C)c1NC(=O)c1cc(C(N)=O)nc2cccc(F)c12 [Example 262]
3 = Cc1nn(Cc2cccc(C#N)c2)c(C)c1NC(=O)c1cc(C(F)(F)F)nc2c(Cl)cc(Cl)cc12 [Example 91]
4 = Cc1nn(Cc2ccc(F)c(F)c2)c(C)c1NC(=O)c1cc(C(N)=O)nc2cc(F)ccc12 [Example 1470]
Sort key = IC50. Sort direction = ascending. Apply to the list above. Returns: the labels arranged in the requested order.
2, 4, 1, 3
